Reference for the values: PubChem BioAssay (NCI)

system: XF 498 CNS; experiment: NCI tumour cell line growth inhibition, 48 h
Quick reference: TGI of the listed items.

# Molecule, TGI
data = [
    ("N#CC1=C(O)NC(O)=C(C#N)C1c1ccc(C2C(C#N)=C(O)NC(O)=C2C#N)cc1", "> 100 µM"),
    ("COc1cccc(SSc2cccc(OC)c2C(=O)O)c1C(=O)O", "> 100 µM"),
    ("CCC1(CN(C)C)CC/C(=C\\c2ccc(OC)c(OC)c2)C1=O (stereo not drawn)", "> 100 µM"),
]

###

test system: SW-620 colon; test: NCI tumour cell line growth inhibition, 48 h
Quick reference: TGI of the listed items.

# Compound, TGI
records = [
    ("Cc1ccc(C2NC(=O)c3ccccc3N2)c(C)c1 (stereo not given)", "> 100 µM"),
    ("COc1cc2c(/C=C3/C(=O)N(C)c4ccc(O)cc43)c(Cl)[nH]c2cc1C", "21.3 µM"),
    ("C=C(C(=C)P(=S)(C(C)C)C(C)C)P(=S)(C(C)C)C(C)C", "> 100 µM"),
    ("COC(=O)Nc1nc2ccc(S(=O)(=O)N3CCOCC3)cc2[nH]1", "> 100 µM"),
    ("Br[C@@H]1[C@H]2c3nc4ccccc4nc3[C@@H]1C[C@H]2Br", "> 100 µM"),
    ("CCOC(=O)/C=C(\\C(=O)OCC)n1cc(C)c(=O)n(Cc2cnnn2COCCOC(C)=O)c1=O", "9.92 µM"),
    ("CN(CCNC(=O)c1c[nH]c2c1Cc1ccccc1-2)CCNC(=O)c1c[nH]c2c1Cc1ccccc1-2", "> 100 µM"),
    ("CC(C)(NC(=O)OCc1ccccc1)C(=O)OC(=O)C(C)(C)NC(=O)OCc1ccccc1", "> 100 µM"),
    ("OC1(c2ccc(Cl)cc2)c2ccccc2-c2nc3ccccc3n21 (stereo not given)", "> 100 µM"),
    ("CC(=O)OCC1OC(n2c(Br)nc3c2c(=O)n(C)c(=O)n3C)C(OC(C)=O)C1OC(C)=O (stereo not given)", "> 100 µM"),
]
